measured_metric: boiling point (°C)
// note: answer is a bare numeric in °C

Solved cases (5 shown):
CC1CCCC1	71.8
F[Si](F)(F)c1ccccc1	102
Oc1c(F)c(F)c(F)c(F)c1F	146
CC=CCCC=CC	124
N#Cc1cccc(F)c1	182

Indicate the recorded boiling point value for this compound: CCC(C)CCC(C)C (stereo not drawn)
136

Return the recorded boiling point value; entry: `C[C@H](O)C(F)(F)F`
75.5

Check the records and state boiling point for `CCCCCCCCN(C)C`
191

Please supply the value of reported boiling point for the item `O=Cc1ccccc1F`
175

Tell me its boiling point given `CCCCOC(=O)CCC` as the entry.
166

Name the recorded boiling point of the item `CC(C)CCOCCC(C)C` in your answer.
172

In one line, give reported boiling point of the entry `c1ccc2cnccc2c1` .
243

Specify measured boiling point for `CN1C2CCC1CC(=O)C2` .
227
